# systemUnderTest: IGF-1R (Homo sapiens, UniProt P08069)
# Construct: purchased Millipore 14-802
# Sequence (P08069 31-1367): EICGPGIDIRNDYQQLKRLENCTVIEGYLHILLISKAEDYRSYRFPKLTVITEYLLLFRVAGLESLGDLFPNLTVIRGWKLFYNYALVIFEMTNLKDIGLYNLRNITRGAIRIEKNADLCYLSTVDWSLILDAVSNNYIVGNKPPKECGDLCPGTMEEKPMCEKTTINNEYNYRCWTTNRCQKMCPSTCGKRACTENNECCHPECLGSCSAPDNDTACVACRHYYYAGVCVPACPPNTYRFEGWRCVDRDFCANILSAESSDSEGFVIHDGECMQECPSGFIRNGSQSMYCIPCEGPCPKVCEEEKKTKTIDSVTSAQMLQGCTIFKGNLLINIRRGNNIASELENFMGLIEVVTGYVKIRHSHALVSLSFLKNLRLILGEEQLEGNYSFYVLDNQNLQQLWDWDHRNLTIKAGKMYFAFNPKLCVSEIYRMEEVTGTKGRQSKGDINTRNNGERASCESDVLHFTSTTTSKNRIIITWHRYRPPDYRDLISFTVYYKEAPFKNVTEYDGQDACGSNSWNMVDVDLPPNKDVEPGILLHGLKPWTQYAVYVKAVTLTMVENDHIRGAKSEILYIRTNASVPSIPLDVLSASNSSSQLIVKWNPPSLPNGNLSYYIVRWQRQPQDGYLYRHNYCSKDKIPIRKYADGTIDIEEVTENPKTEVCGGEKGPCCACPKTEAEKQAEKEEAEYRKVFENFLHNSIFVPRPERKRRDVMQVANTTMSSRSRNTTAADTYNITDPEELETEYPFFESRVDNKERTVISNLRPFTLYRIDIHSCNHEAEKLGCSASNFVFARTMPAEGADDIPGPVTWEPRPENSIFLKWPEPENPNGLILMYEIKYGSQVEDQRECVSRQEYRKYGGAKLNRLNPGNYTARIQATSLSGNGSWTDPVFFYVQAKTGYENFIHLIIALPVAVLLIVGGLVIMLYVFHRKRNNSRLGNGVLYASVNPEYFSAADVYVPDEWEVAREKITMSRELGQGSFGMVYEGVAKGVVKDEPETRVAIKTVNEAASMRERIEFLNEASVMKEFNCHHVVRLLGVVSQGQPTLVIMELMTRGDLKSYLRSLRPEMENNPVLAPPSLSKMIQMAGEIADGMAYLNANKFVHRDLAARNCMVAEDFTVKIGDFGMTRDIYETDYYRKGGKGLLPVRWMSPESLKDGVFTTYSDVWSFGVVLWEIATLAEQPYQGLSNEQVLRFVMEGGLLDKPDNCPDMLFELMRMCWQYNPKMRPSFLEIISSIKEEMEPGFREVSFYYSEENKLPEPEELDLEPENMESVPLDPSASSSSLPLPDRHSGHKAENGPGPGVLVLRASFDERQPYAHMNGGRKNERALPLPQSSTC
# runDescription: In vitro IGF-1R enzymatic assay (ADP-Glo kinase assay)
# Type: biochemical
# measurementSetup: activated IGF-1R, 30 nM, N1; read-out: % Inh @ 30 nM (N1)
# Description: IC50 values of the compounds of the invention against IGF-1R and IR were measured in vitro using an ADP-Glo kinase assay Kit (Promega). […] Kinase reactions in both assays were conducted at 30° C. for 20 min with increasing concentrations of compounds of the invention. Additional compounds of the invention were screened against activated IGF-1R.
So basically: inhibition at 0.03 µM at 20% or higher? That is label 1. Lower than 20%? That is label 0.

These recorded examples may help you get a feel for the data.
O=C(Nc1cnccn1)C1CCCN1c1nc2c(c(Nc3cc(C4CC4)[nH]n3)n1)CCC2 (single isomer, unassigned) [Compound 6b] = label 1
O=C(Nc1ccc(F)nc1)C1CCCN1c1nc2c(c(Nc3cc(C4CC4)[nH]n3)n1)CCC2 (single isomer, unassigned) [Compound 2a] = label 0
CC(C)c1cc(Nc2nc(N3CCCC3C(=O)Nc3ccc(F)nc3)nc3c2CCCC3)n[nH]1 (single isomer, unassigned) [Compound 13b] = label 1
CC(C)c1cc(Nc2nc(N3CCCC3C(=O)Nc3ccc(F)nc3)nc3c2CCCC3)n[nH]1 (single isomer, unassigned) [Compound 13a] = label 0
O=C(Nc1ccc(F)nc1)C1CCCN1c1nc2c(c(Nc3cc(C4CC4)[nH]n3)n1)CCC2 (single isomer, unassigned) [Compound 2b] = label 1
O=C(Nc1cnccn1)C1CCCN1c1nc2c(c(Nc3cc(C4CC4)[nH]n3)n1)CCC2 (single isomer, unassigned) [Compound 6a] = label 1

Now turn to the next molecule.
Query block: // inclusive: inhibition at 0.03 µM at least 20%? input: CC(C)c1cc(Nc2nc(N3CCCC3C(=O)Nc3ccc(F)nc3)nc3c2CCC3)on1 (racemic) [Compound 12b]
Result block: label 0

---

# systemUnderTest: UniProt P04629
# Sequence (P04629 33-796): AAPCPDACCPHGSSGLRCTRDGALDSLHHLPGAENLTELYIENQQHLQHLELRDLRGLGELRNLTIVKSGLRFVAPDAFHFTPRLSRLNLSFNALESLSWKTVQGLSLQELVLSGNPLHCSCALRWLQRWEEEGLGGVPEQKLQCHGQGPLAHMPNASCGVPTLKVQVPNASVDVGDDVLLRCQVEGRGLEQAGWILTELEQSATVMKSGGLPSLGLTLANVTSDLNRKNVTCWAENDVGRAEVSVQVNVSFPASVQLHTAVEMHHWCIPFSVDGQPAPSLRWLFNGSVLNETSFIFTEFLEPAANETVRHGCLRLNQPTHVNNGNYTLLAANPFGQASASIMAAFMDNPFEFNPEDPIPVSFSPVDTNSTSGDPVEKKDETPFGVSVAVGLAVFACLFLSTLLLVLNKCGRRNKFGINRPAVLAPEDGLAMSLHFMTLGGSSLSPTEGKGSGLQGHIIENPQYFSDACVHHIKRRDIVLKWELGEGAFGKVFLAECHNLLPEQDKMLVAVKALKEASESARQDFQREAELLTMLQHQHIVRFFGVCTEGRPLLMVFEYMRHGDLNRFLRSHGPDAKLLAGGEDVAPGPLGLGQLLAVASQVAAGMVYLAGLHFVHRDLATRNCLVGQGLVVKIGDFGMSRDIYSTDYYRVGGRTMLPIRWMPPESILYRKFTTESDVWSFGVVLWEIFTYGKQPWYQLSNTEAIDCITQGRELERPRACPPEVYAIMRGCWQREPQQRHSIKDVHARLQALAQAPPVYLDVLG
# runDescription: HotSpot kinase assay: Trk A
# Assay type: biochemical
# measurementSetup: 100 nM compound, read-out: % Enzyme Inhibition @ 100 nM Trk A
# Experimental: Kinase assays were performed using additional compounds against a panel of 3 kinases: Trk A; Trk B; and Trk C. Each compound was tested at a concentration of 0.1 μM in single duplicate mode against the 3 kinases. Compounds were prepared as 10 mM stock solutions in DMSO prior to use in the assay. […] The screening was performed using the “HotSpot” assay platform. […] The percent of enzyme inhibition was calculated based on the percent of remaining kinase activity.
valueKind: inhibition at 0.1 µM

Reference set (6 entries):
CC(C)c1cc(Nc2nc(N3CCCC3C(=O)N(C)C)nc3c2CCC3)n[nH]1 (single isomer, unassigned) [Compound 20b] = < 39%
CN(C)C(=O)C1CCCN1c1nc2c(c(Nc3cc(C4CCCC4)[nH]n3)n1)CCC2 (stereo not shown) [Compound 115a] = < 39%
O=C(C1CCCN1c1nc2c(c(Nc3cc(C4CCCC4)[nH]n3)n1)CCC2)N1CCCC1 (stereo not shown) [Compound 112a] = > 60%
CC(C)c1cc(Nc2nc(N3CC(O)CC3C(=O)N(C)C)nc3c2CCC3)n[nH]1 (stereo not shown) [Compound 109a] = < 39%
CC(C)c1cc(Nc2nc(N3CC(O)CC3C(=O)N3CCCCC3)nc3c2CCC3)n[nH]1 (stereo not shown) [Compound 107b] = < 39%
O=C(C1CCCN1c1nc2c(c(Nc3cc(C4CCCCC4)[nH]n3)n1)CCC2)N1CCCCC1 (stereo not shown) [Compound 113b] = 40 to 59%

Lab note: next compound to report on.
Query block: // returns reported inhibition at 0.1 µM for input O=C(C1CC(O)CN1c1nc2c(c(Nc3cc(C4CCCC4)[nH]n3)n1)CCC2)N1CCCCC1 (stereo not shown) [Compound 108b]
Result block: 40 to 59%

---

# System: Akt phosphorylation induced by IGF-1R
# runDescription: Western blot analysis of Akt phosphorylation induced by IGF-1 in HT-29 cells
# Assay type: cell-based, Human
# measurementSetup: 1 nM compound, HT-29 cells, IGF-1
Please note: yes applies when Levels of phosphorylated AKT in treated cells (pAKT/actin) is 2 or greater, and no applies otherwise.

O=C(Nc1ccc(F)nc1)C1CCCN1c1nc2c(c(Nc3cc(C4CC4)[nH]n3)n1)CCC2 (single isomer, unassigned) [Compound 2a] = no
O=C(Nc1ccc(F)nc1)C1CCCCN1c1nc2c(c(Nc3cc(C4CC4)[nH]n3)n1)CCC2 (single isomer, unassigned) [Compound 9b] = no
O=C(Nc1ccc(F)nc1)[C@H]1[C@@H](O)CCN1c1nc2c(c(Nc3cc(C4CC4)[nH]n3)n1)CCC2 (single isomer, unassigned) [Compound 11a] = no
O=C(Nc1ccc(F)nc1)C1CCCN1c1nc2c(c(Nc3cc(C4CC4)[nH]n3)n1)CCCC2 (single isomer, unassigned) [Compound 14a] = no
O=C(Nc1ccc(F)nc1)C1CCCN1c1nc2c(c(Nc3cc(C4CCCC4)[nH]n3)n1)CCC2 (single isomer, unassigned) [Compound 4b] = no
CC(C)c1cc(Nc2nc(N3CCCC3C(=O)Nc3ccc(F)nc3)nc3c2CCC3)on1 (racemic) [Compound 12b] = yes
CC1(O)CC(c2nc(-c3ccc4ccc(-c5ccccc5)nc4c3)c3c(N)nccn23)C1 (stereo not shown) [OSI-906, reference compound] = no
O=C(Nc1ccc(F)nc1)C1CC(O)CN1c1nc2c(c(Nc3cc(C4CC4)[nH]n3)n1)CCC2 (racemic) [Compound 10b] = yes
O=C(Nc1cccnc1)C1CCCN1c1nc2c(c(Nc3cc(C4CC4)[nH]n3)n1)CCC2 (single isomer, unassigned) [Compound 3b] = no

Query block: Evaluate O=C(Nc1cncnc1)C1CCCN1c1nc2c(c(Nc3cc(C4CC4)[nH]n3)n1)CCC2 (racemic) : Levels of phosphorylated AKT in treated cells (pAKT/actin) at minimum 2?
Result block: yes

---

# systemUnderTest: IGF-1R (Homo sapiens)
# Construct: purchased Millipore 14-802
# runDescription: In vitro IGF-1R enzymatic assay (ADP-Glo kinase assay)
# Assay type: biochemical
# measurementSetup: activated IGF-1R, 30 nM, average; read-out: % Inh @ 30 nM Avg
valueKind: inhibition at 0.03 µM (%)
One number for each entry, in %.

Worked cases, answers included:
COC1CC(C(=O)Nc2ccc(F)nc2)N(c2nc3c(c(Nc4cc(C5CC5)[nH]n4)n2)CCC3)C1 (single isomer, unassigned) [Compound 21b] = 41
COC1CC(C(=O)Nc2ccc(F)nc2)N(c2nc3c(c(Nc4cc(C5CC5)[nH]n4)n2)CCC3)C1 (single isomer, unassigned) [Compound 21a] = 14
O=C(Nc1ccc(F)nc1)C1CCCN1c1nc2c(c(Nc3cc(C4CC4)[nH]n3)n1)CCC2 (single isomer, unassigned) [Compound 2b] = 89
O=C(Nc1ccc(F)nc1)C1CCCN1c1nc2c(c(Nc3cc(C4CC4)[nH]n3)n1)CCC2 (single isomer, unassigned) [Compound 2a] = 3
CC(C)c1cc(Nc2nc(N3CC(O)CC3C(=O)Nc3ccc(F)nc3)nc3c2CCC3)n[nH]1 (racemic) = 66

Query block: # lookup: inhibition at 0.03 µM of CC(C)c1cc(Nc2nc(N3CCCC3C(=O)N(C)C)nc3c2CCC3)n[nH]1 (single isomer, unassigned) [Compound 20b]
Result block: 9

---

# Tested on: MDA MB231
# runDescription: Cell Titer-Glo cell viability: MDA MB231
# Format: cell-based
# measurementSetup: Homo sapiens, MDA-MB-231; Table B15; breast cancer; 72 h; read-out: IC50 cell viability MDAMB231
valueKind: IC50

Query block: Request body: readout IC50, system MDA MB231, query C[C@@]1(C(=O)Nc2ccc(F)nc2)CCCN1c1nc(Nc2cc(C3CC3)n[nH]2)c2cccn2n1 [BMS-754807, reference compound] . Return the value.
Result block: < 10 µM

---

Consider the following compounds; for each one, report its Levels of phosphorylated AKT in treated cells (pAKT/actin).
# System: Akt phosphorylation induced by IGF-1R
# runDescription: Western blot analysis of Akt phosphorylation induced by IGF-1 in HT-29 cells
# Assay type: cell-based, Human
# measurementSetup: 1 nM compound, HT-29 cells, IGF-1

A selection of reference data follows.
O=C(Nc1cnccn1)C1CCCN1c1nc2c(c(Nc3cc(C4CC4)[nH]n3)n1)CCC2 (single isomer, unassigned) [Compound 6b] = 0.18
O=C(Nc1ccc(F)nc1)C1CCCCN1c1nc2c(c(Nc3cc(C4CCCC4)[nH]n3)n1)CCC2 (single isomer, unassigned) [Compound 17b] = 0.99

Query block: Dear colleague, I am looking for the recorded Levels of phosphorylated AKT in treated cells (pAKT/actin) of the following compound: O=C(Nc1ccc(F)nc1)C1CCCCN1c1nc2c(c(Nc3cc(C4CC4)[nH]n3)n1)CCC2 (single isomer, unassigned) [Compound 9a]
Result block: 1.26
